Each recorded value in this set is attributed to ChEMBL document CHEMBL3272010.

- System: Aspergillus fumigatus
- method-description: Antifungal activity against Aspergillus fumigatus assessed as lowest dose required to total inhibition of fungal growth
- Assay type: functional
value-type: GI (µg/mL)
Reply with just the number (in µg/mL).

Record Clc1ccc(OCC(Cn2ccnc2)c2ccc(Cl)cc2)cc1.O=[N+]([O-])O (stereo not drawn) , field GI: 100

Record Fc1ccc(OCCC(Cn2ccnc2)c2ccc(Cl)cc2Cl)cc1.O=C(O)C(=O)O (stereo not drawn) , field GI: 100

Record Clc1ccc(COC(Cn2ccnc2)c2ccc(Cl)cc2Cl)c(Cl)c1 (stereo not drawn) [MICONAZOLE] , field GI: 10

Record Clc1ccc(OCC(Cn2ccnc2)c2ccc(Br)cc2)cc1.O=[N+]([O-])O (stereo not drawn) , field GI: 100

Record Clc1ccc(OCCC(Cn2ccnc2)c2ccc(Cl)cc2Cl)cc1.O=[N+]([O-])O (stereo not drawn) , field GI: 100

Record COc1ccc(OCCCC(Cn2ccnc2)c2ccc(Cl)cc2Cl)cc1.O=C(O)C(=O)O (stereo not drawn) , field GI: 10

Record Clc1ccc(OCCCC(Cn2ccnc2)c2ccc(Cl)cc2Cl)cc1.O=C(O)C(=O)O (stereo not drawn) , field GI: 100

----------
- System: Saprolegnia
- method-description: Antifungal activity against Saprolegnia species assessed as lowest dose required to total inhibition of fungal growth
- Format: functional
value-type: GI

Record Clc1ccc(OCC(Cn2ccnc2)c2ccc(Br)cc2)cc1.O=[N+]([O-])O (stereo not drawn) , field GI: >100 µg/mL

Record Clc1ccc(C(COc2ccc(Cl)cc2Cl)Cn2ccnc2)cc1.O=[N+]([O-])O (stereo not drawn) , field GI: >100 µg/mL

Record COc1ccc(OCCCC(Cn2ccnc2)c2ccc(Cl)cc2Cl)cc1.O=C(O)C(=O)O (stereo not drawn) , field GI: <1 µg/mL

----------
Provide the recorded GI for the entries that follow.
- System: Candida albicans
- method-description: Antifungal activity against Candida albicans assessed as lowest dose required to total inhibition of fungal growth
- Assay type: functional

Form field GI for item Clc1ccc(C(CCCOc2ccc(Br)cc2)Cn2ccnc2)c(Cl)c1.O=C(O)C(=O)O (stereo unspecified) on Candida albicans: >100 µg/mL

Form field GI for item Clc1ccc(OCC(Cn2ccnc2)c2ccc(Cl)cc2)cc1.O=[N+]([O-])O (stereo unspecified) on Candida albicans: >100 µg/mL

Form field GI for item Clc1ccc(C(CCCOc2ccccc2)Cn2ccnc2)c(Cl)c1.O=C(O)C(=O)O (stereo unspecified) on Candida albicans: >100 µg/mL

Form field GI for item Clc1ccc(OCC(Cn2ccnc2)c2ccc(Cl)cc2Cl)c(Cl)c1.O=[N+]([O-])O (stereo unspecified) on Candida albicans: >100 µg/mL

Form field GI for item Clc1ccc(C(CCOc2ccccc2Br)Cn2ccnc2)c(Cl)c1.O=C(O)C(=O)O (stereo unspecified) on Candida albicans: >100 µg/mL

Form field GI for item Clc1ccc(C(COc2ccc(Br)cc2)Cn2ccnc2)c(Cl)c1.O=[N+]([O-])O (stereo unspecified) on Candida albicans: 100 µg/mL

Form field GI for item Fc1ccc(OCCC(Cn2ccnc2)c2ccc(Cl)cc2Cl)cc1.O=C(O)C(=O)O (stereo unspecified) on Candida albicans: 10 µg/mL

Form field GI for item Clc1ccc(OCC(Cn2ccnc2)c2ccc(Cl)cc2Cl)cc1.O=[N+]([O-])O (stereo unspecified) on Candida albicans: 10 µg/mL

Form field GI for item Clc1ccc(OCCC(Cn2ccnc2)c2ccc(Cl)cc2Cl)c(Cl)c1.O=C(O)C(=O)O (stereo unspecified) on Candida albicans: 100 µg/mL

Form field GI for item Clc1ccc(OCCCC(Cn2ccnc2)c2ccc(Cl)cc2Cl)cc1.O=C(O)C(=O)O (stereo unspecified) on Candida albicans: >100 µg/mL

Form field GI for item COc1ccc(OCCC(Cn2ccnc2)c2ccc(Cl)cc2Cl)cc1.O=[N+]([O-])O (stereo unspecified) on Candida albicans: 100 µg/mL
